- target of assay: HIV-1 TAR RNA
- Format: binding
- experimental parameters: EMSA; positional scanning library, Table S1; without tRNA; read-out: Kd (nM) no tRNA
- Method: Electro Mobility Shift Assays (EMSA) and 2-aminopurine fluorescence ([35]) were used to measure peptide binding. For EMSA, all RNAs were 5′-dephosphorylated ([25],[26]) and 5′-rephosphorylated using T4 Polynucleotide Kinase (PNK); shifts were performed and analyzed as previously described ([14]). […]
Non-standard residues stand in square brackets, D forms with d. Residues, ends and D or L forms follow the SMILES beside them.
experimental readout: Kd (nM)
Answers are plain numbers, in nM.

Can you look up the measured Kd of CC[C@H](C)[C@@H]1NC(=O)[C@H](CCCNC(=N)N)NC(=O)[C@H](CCCNC(=N)N)NC(=O)CNC(=O)[C@H](CCCCN)NC(=O)[C@H](CCCNC(=N)N)NC(=O)[C@H]([C@@H](C)O)NC(=O)[C@H](CCCNC(=N)N)NC(=O)[C@H](C(C)C)NC(=O)[C@H](CCCNC(=N)N)NC(=O)[C@@H]2CCCN2C(=O)[C@H]2CCCN2C(=O)[C@H](CC(C)C)NC(=O)[C@H](CCCNC(=N)N)NC1=O [JB-85] (cyclo(RVRTRKGRRIRL[dP]P)) for me?
5

----------
- target of assay: HIV-1 TAR RNA
- Format: binding
- experimental parameters: EMSA; positional scanning library, Table S1; with tRNA; read-out: Kd (nM) w/tRNA
Non-standard residues stand in square brackets, D forms with d. Residues, ends and D or L forms follow the SMILES beside them.
experimental readout: Kd

Recorded results for 2 compounds are shown here.
CC[C@H](C)[C@@H]1NC(=O)[C@H](Cc2ccc(O)cc2)NC(=O)[C@H](CCCNC(=N)N)NC(=O)CNC(=O)[C@H](CCCCN)NC(=O)[C@H](CCCNC(=N)N)NC(=O)[C@H]([C@@H](C)O)NC(=O)[C@H](CCCNC(=N)N)NC(=O)[C@H](C(C)C)NC(=O)[C@H](CCCNC(=N)N)NC(=O)[C@@H]2CCCN2C(=O)[C@H]2CCCN2C(=O)[C@H]([C@@H](C)CC)NC(=O)[C@H](CCCNC(=N)N)NC1=O [JB-73] (cyclo(RVRTRKGRYIRI[dP]P))
> 1000 nM
CC[C@H](C)[C@@H]1NC(=O)[C@H](CCCCN)NC(=O)[C@H](CCCNC(=N)N)NC(=O)CNC(=O)[C@H](CCCCN)NC(=O)[C@H](CCCNC(=N)N)NC(=O)[C@H]([C@@H](C)O)NC(=O)[C@H](CCCNC(=N)N)NC(=O)[C@H](C(C)C)NC(=O)[C@H](CCCNC(=N)N)NC(=O)[C@@H]2CCCN2C(=O)[C@H]2CCCN2C(=O)[C@H]([C@@H](C)CC)NC(=O)[C@H](CCCNC(=N)N)NC1=O [JB-71] (cyclo(RVRTRKGRKIRI[dP]P))
> 1000 nM

Now consider a different compound.
Can you look up the measured Kd of CC[C@H](C)[C@@H]1NC(=O)[C@H](CCCNC(=N)N)NC(=O)[C@H](CCCNC(=N)N)NC(=O)CNC(=O)[C@H](CCCCN)NC(=O)[C@H](CCCNC(=N)N)NC(=O)[C@H]([C@@H](C)O)NC(=O)[C@H](CCCNC(=N)N)NC(=O)[C@H](C(C)C)NC(=O)[C@H](CCCNC(=N)N)NC(=O)[C@@H]2CCCN2C(=O)[C@H]2CCCN2C(=O)[C@H]([C@@H](C)CC)NC(=O)[C@H](Cc2c[nH]cn2)NC1=O [JB-77] (cyclo(RVRTRKGRRIHI[dP]P)) for me?
> 1000 nM

These measurements were taken from paper PMC6379670.
